MEASURED_TARGET: GST-tagged recombinant human full-length TTK protein kinase (Homo sapiens, UniProt P33981)
Construct: GST-tagged recombinant human full-length TTK protein kinase; purchased Invitrogen (Life Technologies Ltd., Paisley, U.K.)
Sequence (P33981 whole entry): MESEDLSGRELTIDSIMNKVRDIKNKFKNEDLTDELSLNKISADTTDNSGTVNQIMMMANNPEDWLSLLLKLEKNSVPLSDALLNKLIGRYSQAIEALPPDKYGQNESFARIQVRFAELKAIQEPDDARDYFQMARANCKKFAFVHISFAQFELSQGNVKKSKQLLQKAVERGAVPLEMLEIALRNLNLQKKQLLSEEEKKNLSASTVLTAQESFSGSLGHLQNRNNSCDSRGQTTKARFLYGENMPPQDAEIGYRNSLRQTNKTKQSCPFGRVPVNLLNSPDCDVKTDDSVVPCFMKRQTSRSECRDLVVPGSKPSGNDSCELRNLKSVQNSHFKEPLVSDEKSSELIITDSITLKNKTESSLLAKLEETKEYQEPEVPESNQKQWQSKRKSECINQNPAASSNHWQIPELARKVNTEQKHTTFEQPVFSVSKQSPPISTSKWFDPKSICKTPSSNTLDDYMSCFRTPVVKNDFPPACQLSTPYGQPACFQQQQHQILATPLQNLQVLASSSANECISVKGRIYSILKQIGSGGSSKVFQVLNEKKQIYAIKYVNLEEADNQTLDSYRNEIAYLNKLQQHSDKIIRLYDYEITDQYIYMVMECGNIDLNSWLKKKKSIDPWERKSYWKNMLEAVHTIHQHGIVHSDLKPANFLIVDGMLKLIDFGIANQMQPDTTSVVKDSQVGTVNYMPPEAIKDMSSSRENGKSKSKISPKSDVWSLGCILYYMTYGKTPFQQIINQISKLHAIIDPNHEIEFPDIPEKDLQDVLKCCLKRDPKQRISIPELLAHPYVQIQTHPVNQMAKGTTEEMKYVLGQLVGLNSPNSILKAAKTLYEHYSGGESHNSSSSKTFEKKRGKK
ASSAY_SUMMARY: TTK mobility shift microfluidics assay, single-concentration percent inhibition screen
Assay type: biochemical
MEASUREMENT_CONDITIONS: compound at 40 μM; 12.5 nM TTK, 10 μM ATP, 1% DMSO; mean of duplicate ± SD
Is inhibition at 40 µM at least 50%? Then rule met. If not, rule not met.

- MOLECULE: "COc1ccc(Nc2cc(Cl)nc(N)n2)cc1OC [Compound 19]"
  GROUP_LABEL: "rule met"
- MOLECULE: "COc1ccc(NC(=O)c2nc[nH]n2)cc1OC [Compound 23]"
  GROUP_LABEL: "rule not met"
- MOLECULE: "COc1ccc(Nc2ncnc3c2cnn3C)cc1OC [Compound 16]"
  GROUP_LABEL: "rule not met"
- MOLECULE: "COc1ccc(Nc2ncnc3sc(-c4ccccc4)cc23)cc1OC [Compound 11]"
  GROUP_LABEL: "rule met"
- MOLECULE: "COc1ccc(Nc2nc(Nc3ccc(OC)c(OC)c3)c3[nH]cnc3n2)cc1OC [Compound 22]"
  GROUP_LABEL: "rule met"
- MOLECULE: "COc1ccc2c(c1)[nH]c1c(C)nccc12 [Compound 8, harmine]"
  GROUP_LABEL: "rule not met"
- MOLECULE: "c1ccc(-c2nc3cnccc3[nH]2)nc1 [Compound 6]"
  GROUP_LABEL: "rule not met"
- MOLECULE: "COc1ccc(Nc2cc(C)nc(SC)n2)cc1OC [Compound 15]"
  GROUP_LABEL: "rule met"
- MOLECULE: "COc1ccc(Nc2ncnc3nc[nH]c23)cc1OC [Compound 18]"
  GROUP_LABEL: "rule not met"
